EXPERIMENTAL_TARGET: PI 3-kinase beta (Homo sapiens, UniProt P42338)
Sequence (P42338 whole entry): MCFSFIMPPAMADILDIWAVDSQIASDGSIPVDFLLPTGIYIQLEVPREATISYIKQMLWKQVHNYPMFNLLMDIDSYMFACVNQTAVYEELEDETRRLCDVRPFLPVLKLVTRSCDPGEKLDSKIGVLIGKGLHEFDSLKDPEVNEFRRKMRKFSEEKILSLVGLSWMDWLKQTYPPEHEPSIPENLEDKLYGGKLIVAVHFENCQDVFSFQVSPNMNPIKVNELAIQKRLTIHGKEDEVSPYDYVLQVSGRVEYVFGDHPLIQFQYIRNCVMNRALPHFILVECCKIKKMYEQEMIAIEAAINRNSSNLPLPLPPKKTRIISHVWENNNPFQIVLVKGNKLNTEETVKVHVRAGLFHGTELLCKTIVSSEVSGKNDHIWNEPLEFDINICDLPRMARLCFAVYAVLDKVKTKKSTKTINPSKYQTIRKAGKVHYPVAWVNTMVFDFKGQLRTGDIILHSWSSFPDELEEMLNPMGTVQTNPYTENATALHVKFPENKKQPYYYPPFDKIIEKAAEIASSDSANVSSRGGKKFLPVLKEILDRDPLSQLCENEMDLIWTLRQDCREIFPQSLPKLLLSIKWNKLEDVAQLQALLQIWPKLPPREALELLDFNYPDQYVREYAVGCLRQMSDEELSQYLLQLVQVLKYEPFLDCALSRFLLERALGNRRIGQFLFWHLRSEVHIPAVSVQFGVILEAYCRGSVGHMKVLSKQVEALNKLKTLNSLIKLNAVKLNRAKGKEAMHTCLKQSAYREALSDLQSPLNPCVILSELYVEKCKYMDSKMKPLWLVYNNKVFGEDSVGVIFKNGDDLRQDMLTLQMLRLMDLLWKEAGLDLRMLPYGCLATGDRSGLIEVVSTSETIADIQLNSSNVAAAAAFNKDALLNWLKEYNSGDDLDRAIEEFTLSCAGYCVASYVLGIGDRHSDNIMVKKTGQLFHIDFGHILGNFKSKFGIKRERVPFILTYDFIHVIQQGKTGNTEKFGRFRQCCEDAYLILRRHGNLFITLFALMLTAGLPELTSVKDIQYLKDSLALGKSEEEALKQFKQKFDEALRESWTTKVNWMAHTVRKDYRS
Sequence (Q63787 whole entry partner): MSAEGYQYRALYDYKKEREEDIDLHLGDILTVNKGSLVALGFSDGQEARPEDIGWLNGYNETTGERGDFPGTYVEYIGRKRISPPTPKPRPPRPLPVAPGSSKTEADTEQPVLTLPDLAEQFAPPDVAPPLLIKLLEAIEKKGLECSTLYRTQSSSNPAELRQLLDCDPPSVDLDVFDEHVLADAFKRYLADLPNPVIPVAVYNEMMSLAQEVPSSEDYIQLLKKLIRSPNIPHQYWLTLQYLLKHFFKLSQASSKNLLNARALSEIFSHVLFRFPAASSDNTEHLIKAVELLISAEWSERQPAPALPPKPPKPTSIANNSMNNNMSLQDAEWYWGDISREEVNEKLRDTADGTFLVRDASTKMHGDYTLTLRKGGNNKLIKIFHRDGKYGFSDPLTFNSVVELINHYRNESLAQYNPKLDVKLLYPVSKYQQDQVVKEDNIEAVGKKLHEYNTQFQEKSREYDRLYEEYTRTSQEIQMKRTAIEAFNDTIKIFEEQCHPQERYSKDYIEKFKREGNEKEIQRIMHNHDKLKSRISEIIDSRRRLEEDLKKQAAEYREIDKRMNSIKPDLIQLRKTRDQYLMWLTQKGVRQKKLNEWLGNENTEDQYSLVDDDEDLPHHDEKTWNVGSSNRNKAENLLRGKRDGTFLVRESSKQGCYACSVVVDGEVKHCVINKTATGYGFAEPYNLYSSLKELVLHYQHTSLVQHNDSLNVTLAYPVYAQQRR
TEST_DETAILS: Cellular assay I1, p-Akt (S473) in Rat-1 cells, Surefire format
Type: cell-based
TEST_CONTEXT: non-asterisked data: version I1 (Surefire format), Rat-1 cells; read-out: Assay I PI3Kβ IC50
RECORDED_METRIC: pIC50
Please note pIC50 is a logarithmic value: minus log10 of concentration in mol/L. Answer with that number alone.

Q) Item under review: Cc1ccc(S(=O)(=O)NCCC(C)(C)O)cc1-c1cnc(N)c(-c2cnn(CCC(C)C)c2)n1 . Reported pIC50?
A) 5.74
